Values compiled from patent US4319028A.

# EXPERIMENTAL_PROTOCOL: Titration (pKa)
# Assay type: physicochemical
# ASSAY_CONTEXT: 66% dmf-34% h2o, titration (66% DMF-34% H2O); second pKa; read-out: pKa (second value)
Catalogue of molecules with associated pKa

Example entries and their recorded answers appear below.
[[record]]
molecule = "Cn1nnnc1SCC1=C(C(=O)O)N2C(=O)C(NC(=O)[C@H](NC(=O)c3cc(O)cc(O)c3)c3ccc(O)cc3)C2SC1 (some centres unmarked)"
value_type = "pKa"
result = 11.7

[[record]]
molecule = "Cn1nnnc1SCC1=C(C(=O)O)N2C(=O)C(NC(=O)[C@H](NC(=O)c3cc(O)ccc3O)c3ccc(O)cc3)C2SC1 (some centres unmarked)"
value_type = "pKa"
result = 11

[[record]]
molecule = "Cc1nnc(SCC2=C(C(=O)O)N3C(=O)C(NC(=O)[C@H](NC(=O)c4ccc(O)c(Cl)c4)c4ccc(O)cc4)C3SC2)s1 (some centres unmarked)"
value_type = "pKa"
result = 9.5

[[record]]
molecule = "Cc1nnc(SCC2=C(C(=O)O)N3C(=O)C(NC(=O)[C@H](NC(=O)c4cc(O)c(O)c(O)c4O)c4ccc(O)cc4)C3SC2)s1 (some centres unmarked)"
value_type = "pKa"
result = 7.63

[[record]]
molecule = "Cn1nnnc1SCC1=C(C(=O)O)N2C(=O)C(NC(=O)[C@H](NC(=O)c3ccc(O)c(O)c3)c3ccc(O)cc3)C2SC1 (some centres unmarked)"
value_type = "pKa"
result = 10.9


(Q) Entry under review: Cn1nnnc1SCC1=C(C(=O)O)N2C(=O)C(NC(=O)[C@H](NC(=O)c3cccc(O)c3O)c3ccccc3)C2SC1 (some centres unmarked) . Reported pKa?
(A) 8.73

(Q) Look up pKa for this molecule: Cc1nnc(SCC2=C(C(=O)O)N3C(=O)C(NC(=O)[C@H](NC(=O)c4c(O)cccc4O)c4ccc(O)cc4)C3SC2)s1 (some centres unmarked)
(A) 9.13

(Q) Consider the molecule shown here: O=C(O)C1=C(Cl)CSC2C(NC(=O)[C@H](NC(=O)c3cccc(O)c3O)c3ccccc3)C(=O)N12 (some centres unmarked) What is its recorded pKa?
(A) 3.84
